Sourced from patent US8575158B2

# assayed_system: hCRTH2 receptor (Homo sapiens)
# Construct: expressed in transfected cells; host or cells: HEK293
# assay_explanation: Radioligand displacement assay (3H-PGD2) on hCRTH2 receptor membranes
# Format: binding
# conditions_used: antagonistic activity, 3H-PGD2 radioligand displacement, HEK293-hCRTH2 membranes
readout_type: pIC50
Please keep in mind that pIC50 is minus log10 of the molar concentration; only the number is needed.

>>> df
                                   compound  observed
0  Cc1cn(CC(=O)N2CCc3ccccc3C2c2cc(Cl)ccc2OCC(=O)O)c2ccccc12 (racemic)      6.97
1  Cn1cncc1COC(=O)N1CCc2cc(F)ccc2[C@H]1c1cc(Cl)ccc1OCC(=O)O      8.29
2  Cc1nn(CCC(=O)N2Cc3ccccc3C2c2cc(Cl)ccc2OCC(=O)O)c2cc(Cl)ccc12 (single isomer, unassigned) [Example 542]      6.06
3  O=C(O)COc1ccc(F)cc1C1c2cc(-c3cncnc3)ccc2CCN1C(=O)OCc1ccccc1 (racemic)      6.42
4  O=C(O)COc1ccccc1C1c2ccccc2CCN1C(=O)OCc1ccccc1 (racemic)      7.38

Which measured pIC50 value corresponds to O=C(O)COc1ccc(Cl)cc1C1c2ccccc2CCN1C(=O)COc1cccnc1 (racemic) ?
6.67

Check O=C(O)COc1ccc(Cl)cc1C1c2ccccc2CCN1C(=O)OCc1ccc(F)cc1 (racemic) too.
7.84

----------
# assayed_system: hCRTH2 receptor (Homo sapiens, UniProt Q9Y5Y4)
# Construct: expressed in transfected cells; host or cells: HEK293
# assay_explanation: Radioligand displacement assay (3H-PGD2) on hCRTH2 receptor membranes
# Format: binding
# conditions_used: antagonistic activity, 3H-PGD2 radioligand displacement, HEK293-hCRTH2 membranes
# Lookup of reported pIC50 keyed by entry
Scale explanation: pIC50 corresponds to minus log10 of a concentration expressed in moles per litre.

For orientation, consider the following solved cases.
>>> df
                                   compound  readout_type  observed
0  O=C(O)COc1ccc(Cl)cc1C1c2ccccc2CN1C(=O)NCc1ccccc1 (racemic) [Example 555]         pIC50      7.84
1  O=C(O)COc1ccc(Cl)cc1C1c2ccccc2CN1C(=O)CCn1ncc2cc(Cl)ccc21 (stereo not shown) [Example 544]         pIC50      6.47
2  Cc1nn(CCC(=O)N2Cc3ccccc3C2c2cc(Cl)ccc2OCC(=O)O)c2c(F)cccc12 (single isomer, unassigned) [Example 530]         pIC50      7.00

# evaluate next
Dear colleague, I am looking for the recorded pIC50 of the following compound: Cc1c(CCC(=O)N2CCc3ccccc3C2c2cc(Cl)ccc2OCC(=O)O)c2ccccc2n1C (racemic) [Example 457]
7.22

----------
# assayed_system: hCRTH2 receptor (Homo sapiens, UniProt Q9Y5Y4)
# Construct: expressed in transfected cells; host or cells: HEK293
# Sequence (Q9Y5Y4 1-395): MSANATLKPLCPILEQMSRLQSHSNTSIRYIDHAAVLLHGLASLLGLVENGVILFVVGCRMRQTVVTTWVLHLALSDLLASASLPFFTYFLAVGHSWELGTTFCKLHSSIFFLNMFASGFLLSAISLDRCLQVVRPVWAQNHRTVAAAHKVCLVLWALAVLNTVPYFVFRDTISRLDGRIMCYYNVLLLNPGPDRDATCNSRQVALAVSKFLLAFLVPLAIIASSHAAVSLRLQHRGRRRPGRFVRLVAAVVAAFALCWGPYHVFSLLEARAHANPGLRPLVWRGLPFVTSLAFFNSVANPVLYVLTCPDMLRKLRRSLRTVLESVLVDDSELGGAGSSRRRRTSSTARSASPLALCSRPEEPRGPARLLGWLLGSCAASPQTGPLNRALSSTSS
# assay_explanation: Radioligand displacement assay (3H-PGD2) on hCRTH2 receptor membranes
# Format: binding
# conditions_used: antagonistic activity, 3H-PGD2 radioligand displacement, HEK293-hCRTH2 membranes
Recorded measurements of pIC50, one per entry
Formally, pIC50 is defined as -log10 of the concentration c, with c in mol/L.

>>> print(df.to_string())
                                   molecule  readout_type  observed
0  Cc1nn(CCC(=O)N2Cc3ccccc3C2c2cc(Cl)ccc2OCC(=O)O)c2ccccc12 (single isomer, unassigned) [Example 533]         pIC50      8.22
1  Cc1nc2ccccc2n1CCOC(=O)N1CCc2c(ccc(F)c2F)[C@H]1c1cc(Cl)ccc1OCC(=O)O         pIC50      6.86
2  O=C(O)COc1ccc(Cl)cc1C1c2ccccc2CN1C(=O)NCCc1ccccc1 (racemic)         pIC50      7.93

Which measured pIC50 belongs to O=C(O)COc1ccc(Cl)cc1C1c2ccccc2CCN1C(=O)[C@@H]1C[C@H]1c1cccc(Cl)c1 (mixture of isomers) , tested on hCRTH2 receptor (Homo sapiens, UniProt Q9Y5Y4)?
7.62

Next: COc1ccc2[nH]cc(CCC(=O)N3Cc4ccccc4C3c3cc(Cl)ccc3OCC(=O)O)c2c1 (racemic)
7.83

Also, O=C(O)COc1ccc(Cl)cc1C1c2ccccc2CCN1C(=O)CCn1ccc2cc(F)ccc21 (racemic) please.
7.77

Request: O=C(O)COc1ccc(Cl)cc1C1c2ccccc2CN1C(=O)C1CC1c1cccc(F)c1 (stereo not drawn)
7.39

Another: O=C(O)COc1ccc(Cl)cc1C1c2ccccc2CN1C(=O)NCc1ccc(F)cc1 (racemic)
7.59

Continue with COc1ccccc1OCC(=O)N1Cc2ccccc2C1c1cc(Cl)ccc1OCC(=O)O (racemic)
7.25

Also, COc1ccccc1OCC(=O)N1CCc2ccccc2C1c1cc(Cl)ccc1OCC(=O)O (racemic) please.
7.57

Can you check O=C(O)COc1ccc(Cl)cc1C1c2ccccc2CN1C(=O)C1CC1c1ccccc1 (stereo not drawn) next?
7.95

Same thing, different molecule: "O=C(O)COc1ccc(Cl)cc1[C@@H]1c2ccc(F)c(F)c2CCN1C(=O)OCc1noc2ccccc12"
8.92

Check COc1ccc2c(c1)c(CCC(=O)N1CCc3ccccc3C1c1cc(Cl)ccc1OCC(=O)O)cn2C (racemic) too.
7.32

Also need "O=C(O)COc1ccc(Cl)cc1[C@@H]1c2ccc(F)c(F)c2CCN1C(=O)OCCc1cccc(F)c1" , thanks.
7.96

Another: "Cc1ncsc1CCOC(=O)N1CCc2c(ccc(F)c2F)[C@H]1c1cc(Cl)ccc1OCC(=O)O"
8.19

----------
# assayed_system: hCRTH2 receptor (Homo sapiens, UniProt Q9Y5Y4)
# Construct: expressed in transfected cells; host or cells: HEK293
# Sequence (Q9Y5Y4 1-395): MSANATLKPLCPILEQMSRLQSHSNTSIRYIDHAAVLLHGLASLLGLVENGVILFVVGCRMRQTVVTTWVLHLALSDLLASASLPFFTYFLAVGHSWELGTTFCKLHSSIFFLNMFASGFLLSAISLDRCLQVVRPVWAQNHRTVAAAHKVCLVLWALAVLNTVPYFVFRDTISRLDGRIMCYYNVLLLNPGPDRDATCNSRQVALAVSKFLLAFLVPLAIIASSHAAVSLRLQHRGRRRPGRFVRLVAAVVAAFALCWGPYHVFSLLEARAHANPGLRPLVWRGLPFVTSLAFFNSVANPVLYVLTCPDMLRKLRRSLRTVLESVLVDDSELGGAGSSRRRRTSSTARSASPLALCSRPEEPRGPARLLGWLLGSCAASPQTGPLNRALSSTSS
# assay_explanation: Radioligand displacement assay (3H-PGD2) on hCRTH2 receptor membranes
# Type: binding
# conditions_used: antagonistic activity; 3H-PGD2 displacement on HEK293-hCRTH2 membrane fragments
# maps each entry to its IC50
Include the unit right after the number.

Return IC50 measured with hCRTH2 receptor (Homo sapiens, UniProt Q9Y5Y4) given this compound: COc1ccccc1CCCC(=O)N1CCc2ccccc2C1c1cc(F)ccc1OCC(=O)O (racemic)
42.7 nM

// next record O=C(O)COc1ccc(Cl)cc1C1c2ccc(F)c(F)c2CCN1C(=O)OCc1ccccc1 (racemic)
10.1 nM

Repeat for the following compound: O=C(O)COc1ccc(F)cc1C1c2ccccc2CCN1C(=O)CCc1ccccc1 (racemic)
152 nM

----------
Here, each record is paired with measured pIC50 data.
# assayed_system: hCRTH2 receptor (Homo sapiens)
# Construct: expressed in transfected cells; host or cells: HEK293
# assay_explanation: Radioligand displacement assay (3H-PGD2) on hCRTH2 receptor membranes
# Assay type: binding
# conditions_used: antagonistic activity, 3H-PGD2 radioligand displacement, HEK293-hCRTH2 membranes
Convention used: pIC50 is expressed as -log10 of the molar concentration.

For orientation, consider the following solved cases.
>>> print(df.to_string())
                                   molecule  observed
0  O=C(O)COc1ccc(Cl)cc1C1c2ccccc2CN1C(=O)COc1cccc2cccnc12 (racemic)      7.42
1  COc1ccc([C@@H]2C[C@H]2C(=O)N2CCc3ccccc3C2c2cc(Cl)ccc2OCC(=O)O)cc1 (mixture of isomers)      6.73
2  Cc1csc(COC(=O)N2CCc3cc(F)ccc3[C@H]2c2cc(Cl)ccc2OCC(=O)O)n1      8.47

Find pIC50 (hCRTH2 receptor (Homo sapiens)) for the entry COc1ccc(OCC(=O)N2CCc3ccccc3C2c2cc(Cl)ccc2OCC(=O)O)c(OC)n1 (racemic)
6.79
